Values compiled from ChEMBL document CHEMBL1201862.

- Tested on: SF-539
- assay-notes: NCI tumour cell line growth inhibition, 48 h
Active and inactive are the calls of the source. Rule as the data show it: active = GI50 up to about 1.1 µM and inactive = higher.
metric: GI50

1. Cc1ccc(C(=O)c2[nH]c(Nc3cc(C)ccn3)c(C(=S)Nc3ccccc3)c2N)cc1 :: > 100 µM (inactive)
2. Nc1ccc(-c2cssc2=S)cc1 :: 52.8 µM (inactive)
3. CC[C@@H](/C=C\CCC1(C[C@H](O)CCC=C(C)C)OCCO1)O[Si](C(C)C)(C(C)C)C(C)C :: 18.5 µM (inactive)
4. O=C(O)CCc1nc2cc3ccccc3cc2[nH]c1=O :: > 100 µM (inactive)

----------
- Tested on: NCI-H23
- assay-notes: NCI tumour cell line growth inhibition, 48 h
Calls of active or inactive are those of the source. Cut-off read from the data, not from the text of the source: active = GI50 up to about 1.1 µM and inactive = higher.
Recorded measurements of GI50, one per entry
metric: GI50

1) CSc1cc(N)ccc1/N=N/c1ccc(S(N)(=O)=O)cc1 :: 33.4 µM (inactive)
2) CC(=O)NC(CCCCN(Cc1ccccc1)C(=O)N(CCCl)N=O)C(=O)NCc1ccccc1 (centres undefined) :: 27.7 µM (inactive)
3) CCOC(=O)/C=C\[C@H]1OC(C)(C)O[C@H]1[C@H](O)[C@H]1COC(C)(C)O1 :: 21.7 µM (inactive)
4) Cc1ccc(S(=O)(=O)N(CC(O)COc2ccccc2)c2ccccc2Cl)cc1 (centres undefined) :: 14.7 µM (inactive)

----------
# GI50 annotations
- System: EKVX
- assay-notes: NCI tumour cell line growth inhibition, 48 h
Activity calls are given as the source filed them. No stated cut-off is given here; in the data, active = GI50 up to about 1.1 µM and inactive = higher.
metric: GI50

1) O=C(c1ccc(O)cc1O)C1C(c2ccc(O)cc2)OC(c2ccc(O)cc2)C1C(=O)c1ccc(O)cc1O (stereo not drawn) :: 21.2 µM (inactive)
2) O=C(Cn1c(=O)oc2ccc(C(=O)c3cccc(Cl)c3)cc21)c1ccccc1 :: 30.1 µM (inactive)
3) Cn1c(=O)sc2cc(C(=S)N3CCOCC3)ccc21 :: > 28.8 µM (inactive)
4) CCCOP(=O)(OCCC)OC(C(F)(F)F)C(F)(F)F :: > 100 µM (inactive)
5) CN(C)CCOc1ccc(I)cc1Cc1ccccc1 :: 14.5 µM (inactive)
6) COc1cc(C2C3=C(CCC3=O)Oc3cc4c(cc32)OCO4)cc(OC)c1OC (stereo not drawn) :: 0.422 µM (active)
7) CC(C(=O)O)c1ccc(-n2nnc3c(=O)[nH][nH]c(=O)c32)cc1 (stereo not drawn) :: > 100 µM (inactive)
8) CCCCC(C#N)(OP1(=O)OC(c2ccccc2)C(C)N1C)c1ccccc1 (stereo not drawn) :: 22.5 µM (inactive)
9) COc1ccc(N2C(=O)/C(=C/c3ccc(N(CCC#N)CCC#N)cc3)N=C2c2ccccc2)c(OC)c1 :: > 100 µM (inactive)
10) CCOC(=O)[C@H]1Nc2ccc(Cl)cc2[C@H]2OCC[C@@H]12 :: > 100 µM (inactive)
11) CCC1(c2ccc(N)cc2)CCC(=O)NC1=O (stereo not drawn) [AMINOGLUTETHIMIDE] :: 3880 µM (inactive)
12) Cn1c(=O)c2nc3sc4ccccc4c(=N)n3c2n(C)c1=O :: > 100 µM (inactive)
13) COC(COC(=O)N1CCN(C=O)CC1)C1=C(N2CC2)C(=O)C(C)=C(N2CC2)C1=O (stereo not drawn) :: 5.08 µM (inactive)
14) CC[C@@H](/C=C\CCC1(C[C@H](O)CCC=C(C)C)OCCO1)O[Si](C(C)C)(C(C)C)C(C)C :: 28.8 µM (inactive)
15) CC[C@H]1C=CCC[C@@]2(C[C@@H]3CC[C@@H]4[C@H](C(=O)OCCCCCCCCCCCCCCCC(=O)N(CCCNC(C)=O)C[C@H](CCNC(C)=O)OC(C)=O)[C@]5(CCC[C@@H](C)O5)NC(=[N+]34)N2)O1 :: 0.392 µM (active)
16) O=c1[nH]n(Cc2ccccc2)c2ccc([N+](=O)[O-])cc12 :: > 100 µM (inactive)
17) Cc1nc2ccc(NCCN(C)C)c3c(=O)c4ccccc4n1c23 :: 3.05 µM (inactive)
18) CN(C)c1ccc(/C=C2\N=C(c3ccccc3)N(c3nc4ccc(Sc5ccccc5)cc4[nH]3)C2=O)cc1 :: 40.7 µM (inactive)
